Sourced from PubChem BioAssay AID1347434

target: Single-stranded DNA cytosine deaminase (Homo sapiens); test: Confirmatory qHTS assay for inhibitors of Activation Induced Cytidine Deaminase (AID): AID signals; conditions: recombinant AID, FRET deamination/UDG coupled fluorescence, 4 h; series mostly up to 115 µM; further: potency means the concentration at half of the fitted maximal effect
The campaign covered roughly 1,200 compounds. About 30 (2%) were called active. Inconclusive results (about 23%) are left out. Shown is part of a subset that was picked to be rich in actives.
measured-quantity: Potency

Cc1ccc(C)c(CN2C(=O)c3ccccc3S(=O)c3ccc(C(=O)N4CCC(C)CC4)cc32)c1 (stereo not given); inactive
CCN(C(=O)Cn1c(SCC(=O)Nc2ccc(OC)cc2)nc2ccccc21)c1cccc(C)c1; inactive
COc1ccccc1C(=O)Oc1c(Sc2ccccc2)c(C)nn1-c1ccccc1; inactive
COc1ccc(Nc2ncc(C(=O)Nc3cccc(OC)c3)c3ccccc23)cc1; inactive
CCc1ccc(CN(Cc2ccco2)C(=O)c2ccc(C)cc2)cc1; inactive

# molecule `CCOC(=O)C1CCN(c2nc3c(S(=O)(=O)c4ccccc4)nnn3c3ccsc23)CC1` ; its Potency = inactive

# molecule `COc1cc(/C=C(\C#N)C(=O)Nc2nnc(C(F)(F)F)s2)ccc1OCc1ccc(C(F)(F)F)cc1C(F)(F)F` ; its Potency = 31.6 µM (active)

# molecule `CCOc1ccc(-c2noc(CSc3nnc(Cc4ccccc4)n3-c3ccc(F)cc3)n2)cc1` ; its Potency = inactive

# molecule CCc1nnc2c(N3CCN(c4cccc(C)c4)C(C)C3)nc3ccccc3n12 (stereo not given) ; its Potency = inactive

# molecule CC(=O)Nc1ccc(S(=O)(=O)Nc2nc3n(n2)C(c2ccccc2)C=C(c2ccc(Cl)cc2)N3)cc1 (stereo not given) ; its Potency = 39.8 µM (active)

# molecule `COc1ccc(C(=O)c2sc3nc4c(c(C(F)(F)F)c3c2N)CN(C(C)=O)CC4)cc1OC` ; its Potency = inactive

# molecule `CCc1cccc(-n2c(C)nc3c(cnn3-c3ccc(C)c(C)c3)c2=O)c1` ; its Potency = inactive

# molecule `CCc1ccc2c(c1)c(=O)c(S(=O)(=O)c1ccc(Cl)cc1)cn2CC` ; its Potency = inactive

# molecule `CCCCN(CC)CCCNC(=O)c1cn(CC)c2ccc(S(=O)(=O)N3CCc4ccccc4C3)cc2c1=O` ; its Potency = inactive

# molecule CC1CCCN(C(=O)c2ccc(CSc3nc4ccncc4n3Cc3ccccc3)cc2)C1 (stereo not given) ; its Potency = inactive

# molecule `CCc1ccc(-n2c(SCc3nc(-c4cc(OC)ccc4OC)no3)nnc2-c2ccccc2)cc1` ; its Potency = inactive

# molecule Cc1ccc(S(=O)(=O)Nc2nc3n(n2)C(c2ccccc2Cl)C=C(c2ccccc2)N3)cc1 (stereo not given) ; its Potency = inactive

# molecule `Cc1cccc(-c2nc(CCNC(=O)COc3ccccc3)cs2)c1` ; its Potency = inactive

# molecule COc1ccc(C2C=C(c3ccccc3)Nc3nc(NS(=O)(=O)c4ccccc4)nn32)cc1 (stereo not given) ; its Potency = inactive

# molecule `Cc1cccc(-n2cnc3cc(C(=O)NCc4ccccc4Cl)ccc32)c1` ; its Potency = inactive

###

biological target: Single-stranded DNA cytosine deaminase (Homo sapiens); assay: Confirmatory qHTS assay for inhibitors of Activation Induced Cytidine Deaminase (AID): AID signals; conditions: recombinant AID, FRET deamination/UDG coupled fluorescence, 4 h; series mostly up to 115 µM
Among all 1,200 compounds or so, about 30 (2%) were called active. Inconclusive results (about 23%) are left out. Calls come from the whole dose curve; as a rule, active = well fitted inhibition curve with a large enough effect; inconclusive = small, poorly fitted or top-dose-only effect; inactive = flat fitted curve, though single readings scatter. The sample holds actives, similar compounds and a random draw of the others, so the mix is not that of the screen.
Select the correct class. Options are active, inactive and nothing else.

Would you please look over these solved cases?
Cc1ccc(C)c(N(C)C(=O)C2CCN(c3ncnc4c3nc3n4CCCCC3)CC2)c1; inactive
CCCCSCCCNC(=O)c1cn(CC)c2ccc(S(=O)(=O)N(C)C3CCCCC3)cc2c1=O; inactive
Cc1cc(OCCCSc2nc(-c3ccc(C(C)(C)C)cc3)nc3cc(=O)[nH]n23)ccc1Cl; active

Exam item: Recorded test call requested for `Cc1ccc(-c2nc(C(=O)N3CCN(c4ccccc4)CC3)c3n2CCCCC3)cc1`
Marked response: inactive

Exam item: Recorded test call requested for `Cc1ccc(C)c(N2CCN(C(=O)c3cccn3-c3nnc(N4CCCCC4)s3)CC2)c1`
Marked response: inactive

Exam item: Recorded test call requested for `O=c1cc2nc(-c3cccs3)nc(SCCOc3ccc(Cl)cc3)n2[nH]1`
Marked response: inactive

Exam item: Recorded test call requested for COc1cccc(-c2nc(CS(=O)CC(=O)N3CCN(c4cccc(C(F)(F)F)c4)CC3)c(C)o2)c1 (stereo not given)
Marked response: inactive

Exam item: Recorded test call requested for `Cc1ccccc1Nc1c(-c2ccc(N3CCOCC3)cc2)nc2ccccn12`
Marked response: inactive

Exam item: Recorded test call requested for `CN1CCN(c2nc3c(S(=O)(=O)c4ccc(Cl)cc4)nnn3c3ccsc23)CC1`
Marked response: inactive

Exam item: Recorded test call requested for `Cc1nc2nc(SCC(=O)NCc3ccccc3)nn2c(C)c1Cc1ccccc1Cl`
Marked response: inactive

###

Target: Single-stranded DNA cytosine deaminase (Homo sapiens)
Experiment: Confirmatory qHTS assay for inhibitors of Activation Induced Cytidine Deaminase (AID): AID signals
Details: recombinant AID, FRET deamination/UDG coupled fluorescence, 4 h; series mostly up to 115 µM
Excerpt: Assay Provider (PI) Patricia Gearhart Ph.D. National Institute on Aging National Institute of Health (NIH), Bethesda, MD Assay Provider (PI) Rahul Kohli Ph.D. Perelman School of Medicine University of Pennsylvania, Philadelphia, PA Activation-Induced Deaminase (AID) is a cytosine deaminase which converts cytosine into uracil within stretches of ssDNA. […] This screen has two signal output, Read 1 evaluates the AID inhibition response. […]
Out of some 1,200 compounds screened, about 30 (2%) were called active. Roughly 23% stayed inconclusive and do not appear here. The call rests on the fitted dose curve; in most records, active means well fitted inhibition curve with a large enough effect; inconclusive means small, poorly fitted or top-dose-only effect; inactive means flat fitted curve, though single readings scatter. The list comes from a sample in which actives are over-represented; it also holds close analogues and randomly drawn compounds.
Select the correct class. Options are true (1) for active, false (0) for inactive and nothing else.

Would you please look over these solved cases?
Cc1cc2c(cc3c(SCc4ccc(Cl)cc4)nnc(C)n32)o1; false (0)
COc1cc(Cl)c(C)cc1NC(=O)CSc1ncc(S(=O)(=O)c2ccc(C(C)(C)C)cc2)c(=O)[nH]1; false (0)
CCn1cc2nc(SCC(=O)Nc3ccccc3C(F)(F)F)n(Cc3ccc(C)cc3)c(=O)c2n1; false (0)
Cc1ccc2nc(Cl)c3cc(C(=O)N4CCCC(C)C4)sc3c2c1 (centres undefined); false (0)
COc1ccc(C(=O)NCC(c2cccnc2)N2CCc3ccccc32)cc1 (centres undefined); false (0)
CCc1ccccc1NC(=O)CN(c1ccccc1OC)S(=O)(=O)c1ccc(C)cc1; false (0)

Exam item: Recorded test call requested for `CC(C)(C)c1ccc(S(=O)(=O)c2cnc(SCC(=O)Nc3ccc(F)c(Cl)c3)[nH]c2=O)cc1`
Marked response: true (1)

Exam item: Recorded test call requested for COC(=O)c1ccc(OCC2c3cc(OC)c(OC)cc3CCN2C(=O)c2cccc(C)c2)cc1 (centres undefined)
Marked response: false (0)

Exam item: Recorded test call requested for `CC(C)c1ccc(S(=O)(=O)c2cnc(SCC(=O)Nc3cccc(C(F)(F)F)c3)nc2N)cc1`
Marked response: false (0)

###

target: Single-stranded DNA cytosine deaminase (Homo sapiens); experiment: Confirmatory qHTS assay for inhibitors of Activation Induced Cytidine Deaminase (AID): AID signals; settings: recombinant AID, FRET deamination/UDG coupled fluorescence, 4 h; series mostly up to 115 µM
Screen size: about 1,200 compounds; about 30 (2%) were called active. Inconclusive results (about 23%) are left out. The list comes from a sample in which actives are over-represented; it also holds close analogues and randomly drawn compounds.
measured-quantity: outcome

// solved cases for outcome follow
O=C(NCCc1ccccc1)c1sc2ncccc2c1-n1cccc1; inactive
COc1ccc(C(=O)Nc2nc3n(n2)C(c2ccc(Cl)cc2)C=C(c2ccccc2)N3)cc1OC (stereo not given); inactive
CCOC(=O)C1=C(CN2CCN(c3cc(C)ccc3C)CC2)NC(=O)NC1c1ccccc1 (stereo not given); inactive
CCOc1ccc(-c2nn(-c3ccccc3)cc2C2NC(=O)NC(C)=C2C(=O)OC(C)C)cc1C (stereo not given); inactive

Now examine the next entry.
# compound `Cc1ccc(C)c(Cn2nc(-c3cc(C)ccc3C)ccc2=O)c1` ; its outcome = inactive

###

Target: Single-stranded DNA cytosine deaminase (Homo sapiens) (UniProt Q9GZX7)
Sequence (Q9GZX7 whole entry, looked up): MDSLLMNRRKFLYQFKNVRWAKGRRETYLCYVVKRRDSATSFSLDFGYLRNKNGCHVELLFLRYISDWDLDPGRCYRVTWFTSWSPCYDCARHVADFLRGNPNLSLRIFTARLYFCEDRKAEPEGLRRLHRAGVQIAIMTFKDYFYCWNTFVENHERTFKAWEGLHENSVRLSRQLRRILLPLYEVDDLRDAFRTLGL
Assay: Confirmatory qHTS assay for inhibitors of Activation Induced Cytidine Deaminase (AID): AID signals
Settings: recombinant AID, FRET deamination/UDG coupled fluorescence, 4 h; series mostly up to 115 µM
Description: Assay Provider (PI) Patricia Gearhart Ph.D. National Institute on Aging National Institute of Health (NIH), Bethesda, MD Assay Provider (PI) Rahul Kohli Ph.D. Perelman School of Medicine University of Pennsylvania, Philadelphia, PA Activation-Induced Deaminase (AID) is a cytosine deaminase which converts cytosine into uracil within stretches of ssDNA. […] This screen has two signal output, Read 1 evaluates the AID inhibition response. […]
Out of some 1,200 compounds screened, about 30 (2%) were called active. About 23% were inconclusive and are not listed. Calls come from the whole dose curve; as a rule, active = well fitted inhibition curve with a large enough effect; inconclusive = small, poorly fitted or top-dose-only effect; inactive = flat fitted curve, though single readings scatter. For the sample, actives were picked, then their nearest neighbours and some compounds at random.
Select the correct class. Options are T (active), F (inactive) and nothing else.

Would you please look over these solved cases?
CCN(CC)C(=O)CSc1nc(-c2ccccc2F)nc2c1Cc1c(CO)cnc(C)c1O2; F
COc1ccccc1C(=O)NCCn1cc(SCc2ccccc2Cl)c2ccccc21; F
O=C(c1ccc(F)cc1)c1cn(Cc2ccccc2)c2cc3c(cc2c1=O)OCO3; F

Exam item: Recorded test call requested for `Cc1cccc(C(=O)Nc2sc3c(c2C(=O)O)CCCC3)c1`
Marked response: F

Exam item: Recorded test call requested for OCC1O[C@H]([S-])[C@H](O)[C@@H](O)[C@@H]1O.[Au+] (stereo partly specified)
Marked response: T

Exam item: Recorded test call requested for CCN1C(=O)c2ccccc2S(=O)c2ccc(C(=O)N3CCN(c4cccc(C)c4)C(C)C3)cc21 (stereo unspecified)
Marked response: F

Exam item: Recorded test call requested for `CCN(C(=O)CSc1nc(-c2ccccc2)no1)c1cccc(C)c1`
Marked response: F

Exam item: Recorded test call requested for `Cc1cc(Nc2cccc(F)c2)n2nc(-c3ccco3)nc2n1`
Marked response: F

Exam item: Recorded test call requested for `O=C(NCCc1nc2ccccc2n1Cc1ccc(Cl)cc1Cl)c1ccco1`
Marked response: F
